molecular target: SARS-CoV-2 spike receptor-binding domain, ancestral (amino acids 331-529), biotinylated (SARS-CoV-2, ancestral (Wuhan), UniProt P0DTC2, biotin (RBD expression vector co-expressed with BirA-Flag, 100 μM biotin added)); assay: BLI; details: both partners purified
So I've got a bunch of binders here, and I need their pKd values.
One number for each entry, as −log10 of the molar value.

Here is how some binders turned out for pKd.
BINDER	pKd
NIV-8 Fab (Fab, V domains shown) VH: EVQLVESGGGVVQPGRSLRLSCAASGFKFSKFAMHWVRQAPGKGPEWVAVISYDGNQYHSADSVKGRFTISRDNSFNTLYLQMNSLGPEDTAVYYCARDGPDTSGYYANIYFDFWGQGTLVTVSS VL: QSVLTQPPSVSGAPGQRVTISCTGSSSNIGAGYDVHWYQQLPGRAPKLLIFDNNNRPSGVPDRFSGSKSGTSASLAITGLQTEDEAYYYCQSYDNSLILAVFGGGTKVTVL	10.96
NIV-13 Fab (Fab, V domains shown) VH: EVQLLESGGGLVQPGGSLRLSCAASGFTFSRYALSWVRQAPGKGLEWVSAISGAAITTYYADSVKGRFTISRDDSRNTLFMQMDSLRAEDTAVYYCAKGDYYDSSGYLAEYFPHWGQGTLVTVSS VL: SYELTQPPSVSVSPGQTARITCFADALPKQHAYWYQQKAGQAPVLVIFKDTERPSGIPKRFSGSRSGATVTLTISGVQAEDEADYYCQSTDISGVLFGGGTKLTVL	11.13
NIV-11 Fab (Fab, V domains shown) VH: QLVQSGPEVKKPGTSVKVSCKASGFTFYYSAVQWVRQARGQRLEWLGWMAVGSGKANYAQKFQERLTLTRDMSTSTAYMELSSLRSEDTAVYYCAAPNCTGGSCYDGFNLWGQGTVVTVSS VL: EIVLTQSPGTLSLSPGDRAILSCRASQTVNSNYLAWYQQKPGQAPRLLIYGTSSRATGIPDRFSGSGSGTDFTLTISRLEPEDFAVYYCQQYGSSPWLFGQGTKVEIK	10.68

Attention now shifts to the item below.
What measured pKd goes with NIV-10 Fab (Fab, V domains shown) VH: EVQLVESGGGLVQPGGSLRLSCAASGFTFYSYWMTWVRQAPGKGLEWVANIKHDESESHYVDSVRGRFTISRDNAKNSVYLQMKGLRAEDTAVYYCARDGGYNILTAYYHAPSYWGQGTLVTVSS VL: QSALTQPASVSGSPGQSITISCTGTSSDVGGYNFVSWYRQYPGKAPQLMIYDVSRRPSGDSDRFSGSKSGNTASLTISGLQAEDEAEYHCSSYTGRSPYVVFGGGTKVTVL ?
11.27
